experiment: 19F NMR chemical shifts and longitudinal relaxation rates at 188 MHz (4.7 T, 298K); format: physicochemical; details: 188 MHz, pH 5.5, referred to NaCF3CO2 δF −76.1 ppm
Assay readout: Limiting 19F chemical shift δF ortho CF3 group (ppm)
One number for each entry, in ppm.

O=C([O-])CN1CCN(CC(=O)[O-])CCN(CC(=O)Nc2ccc(C(F)(F)F)cc2C(F)(F)F)CCN(CC(=O)[O-])CC1.[Y+3] [[YL^1]]; −61.3

Could you report Limiting 19F chemical shift δF ortho CF3 group for every entry in the following list?
1. O=C([O-])CN1CCN(CC[N-]S(=O)(=O)c2cc(C(F)(F)F)ccc2C(F)(F)F)CCN(CC(=O)[O-])CCN(CC(=O)[O-])CC1.[Eu+3] [[EuL^2]^−]
2. O=C([O-])CN1CCN(CC[N-]S(=O)(=O)c2cc(C(F)(F)F)ccc2C(F)(F)F)CCN(CC(=O)[O-])CCN(CC(=O)[O-])CC1.[Tb+3] [[TbL^2]^−]
3. O=C([O-])CN1CCN(CC(=O)[O-])CCN(CC(=O)Nc2ccc(C(F)(F)F)cc2C(F)(F)F)CCN(CC(=O)[O-])CC1.[Tm+3] [[TmL^1]]

-- reply
1. −53
2. −159
3. −79.6

-- ask For O=C([O-])CN1CCN(CC(=O)[O-])CCN(CC(=O)Nc2ccc(C(F)(F)F)cc2C(F)(F)F)CCN(CC(=O)[O-])CC1.[Yb+3] [[YbL^1]] , write its Limiting 19F chemical shift δF ortho CF3 group.
-- reply −65.4

Values were extracted from patent US20110021765A1.
